Molecular target: mCMKLR1 (Mus musculus, UniProt P97468)
Sequence (P97468 1-371): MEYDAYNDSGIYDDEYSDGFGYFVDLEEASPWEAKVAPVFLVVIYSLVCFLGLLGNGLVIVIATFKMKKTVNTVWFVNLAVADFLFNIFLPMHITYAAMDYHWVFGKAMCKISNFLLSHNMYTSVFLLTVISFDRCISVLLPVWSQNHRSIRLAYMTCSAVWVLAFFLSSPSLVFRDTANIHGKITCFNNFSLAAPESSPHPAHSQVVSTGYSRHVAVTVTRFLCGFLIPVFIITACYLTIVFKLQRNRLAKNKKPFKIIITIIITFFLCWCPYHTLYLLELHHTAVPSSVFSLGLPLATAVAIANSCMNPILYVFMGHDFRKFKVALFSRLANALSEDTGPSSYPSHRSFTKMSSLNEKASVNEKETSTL
pIC50: −log10 of the molar value.
measurement.type: pIC50

1. C[N+](C)(C)CCC(=O)c1cccc2ccccc12.[I-]
5.30

Hey, just so you know, these numbers are from paper PMC4249827.
